Target: TLR8 (Homo sapiens)
Construct: Human peripheral blood mononuclear cells (PBMCs) consist of lymphocytes, monocytes and dendritic cells that express TLR7, TLR8 and TLR9; endogenous in cells
Sequence (Q9NR97 27-1041): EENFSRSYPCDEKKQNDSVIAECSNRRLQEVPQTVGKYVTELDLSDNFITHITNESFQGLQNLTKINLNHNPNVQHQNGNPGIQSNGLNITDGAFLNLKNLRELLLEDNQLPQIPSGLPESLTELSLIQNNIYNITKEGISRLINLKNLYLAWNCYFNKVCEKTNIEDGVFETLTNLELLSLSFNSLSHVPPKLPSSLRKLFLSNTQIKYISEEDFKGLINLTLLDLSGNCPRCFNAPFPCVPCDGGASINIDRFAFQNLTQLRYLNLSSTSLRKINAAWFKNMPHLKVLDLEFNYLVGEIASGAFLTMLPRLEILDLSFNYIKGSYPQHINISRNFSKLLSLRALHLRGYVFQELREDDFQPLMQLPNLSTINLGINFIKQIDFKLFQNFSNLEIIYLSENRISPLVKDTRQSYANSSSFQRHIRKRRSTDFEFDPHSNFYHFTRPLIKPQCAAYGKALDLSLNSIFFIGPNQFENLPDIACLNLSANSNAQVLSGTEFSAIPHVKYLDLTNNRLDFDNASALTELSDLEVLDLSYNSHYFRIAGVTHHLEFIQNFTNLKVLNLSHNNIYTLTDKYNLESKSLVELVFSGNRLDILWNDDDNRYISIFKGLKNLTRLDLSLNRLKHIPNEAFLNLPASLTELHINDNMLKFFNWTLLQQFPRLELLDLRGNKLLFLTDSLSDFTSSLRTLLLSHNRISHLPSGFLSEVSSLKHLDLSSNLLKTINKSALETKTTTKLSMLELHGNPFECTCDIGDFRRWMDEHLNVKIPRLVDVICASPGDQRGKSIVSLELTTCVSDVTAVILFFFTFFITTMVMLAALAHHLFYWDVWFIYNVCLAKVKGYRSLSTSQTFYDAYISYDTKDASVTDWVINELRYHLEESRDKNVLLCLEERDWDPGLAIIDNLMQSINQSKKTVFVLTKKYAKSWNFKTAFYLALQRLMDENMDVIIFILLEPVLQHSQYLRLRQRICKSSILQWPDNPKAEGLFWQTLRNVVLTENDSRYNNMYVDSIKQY
Experiment: TLR8 human PBMC cell-based assay (antagonist, Compound A stimulated cytokine release)
Conditions: human PBMCs; TLR8 agonist Compound A 800 nM, 6 hours; cytokines (TNFa and IL 12p40) in supernatant; read-out: TLR-8 EC50
Here the recorded EC50 is given for each entry.
Reply with just the number (in nM).

Here are 5 molecules together with their reported answers.
{"molecule": "Cc1cc(-c2[nH]c3cc(-c4ccc5nc(C6[C@H]7CC[C@H](C7)N6CC(N)=O)[nH]c5c4)sc3c2C(C)C)cn2ncnc12 (stereo partly shown) [Example 170]", "readoutLabel": "EC50", "measured": 10.5}
{"molecule": "Cc1cc(-c2[nH]c3cc(C4CCC5(CC4)CN(C(=O)CN(C)C)C5)sc3c2C(C)C)cn2ncnc12 [Example 185]", "readoutLabel": "EC50", "measured": 8.7}
{"molecule": "Cc1cc(-c2[nH]c3cc(C(=O)N4CCN(CCO)CC4)sc3c2C(C)C)cn2ncnc12 [Example 69]", "readoutLabel": "EC50", "measured": 9.2}
{"molecule": "Cc1cc(-c2[nH]c3cc(-c4nnc(C5CCN(CC(N)=O)CC5)s4)sc3c2C(C)C)cn2ncnc12 [Example 168]", "readoutLabel": "EC50", "measured": 2.8}
{"molecule": "Cc1cc(-c2[nH]c3cc(C(=O)N4CC5(CNC5)C4)sc3c2C(C)C)cc(C)n1 [Example 24]", "readoutLabel": "EC50", "measured": 408}

## Input Observed EC50 on TLR8 (Homo sapiens) for Cc1cc(-c2[nH]c3cc(-c4cnc5c(c4)CN(CC(N)=O)CC5)sc3c2C(C)C)cn2ncnc12 [Example 173] , please.
## Output 4.8

## Input Form field: EC50 recorded for Cc1cc(-c2[nH]c3cc(-c4cnn5c4CNCC5)sc3c2C(C)C)cn2ncnc12 [Example 219] with TLR8 (Homo sapiens) (enter value)
## Output 4.6

All figures here come from patent US20240217990A1.
